The compounds listed here are annotated with their inhibition at 10 µM.
Target: 5-HT1D (Homo sapiens)
Construct: purchased NIMH Psychoactive Drug Screening Program (PDSP)
Sequence (P28221 whole entry): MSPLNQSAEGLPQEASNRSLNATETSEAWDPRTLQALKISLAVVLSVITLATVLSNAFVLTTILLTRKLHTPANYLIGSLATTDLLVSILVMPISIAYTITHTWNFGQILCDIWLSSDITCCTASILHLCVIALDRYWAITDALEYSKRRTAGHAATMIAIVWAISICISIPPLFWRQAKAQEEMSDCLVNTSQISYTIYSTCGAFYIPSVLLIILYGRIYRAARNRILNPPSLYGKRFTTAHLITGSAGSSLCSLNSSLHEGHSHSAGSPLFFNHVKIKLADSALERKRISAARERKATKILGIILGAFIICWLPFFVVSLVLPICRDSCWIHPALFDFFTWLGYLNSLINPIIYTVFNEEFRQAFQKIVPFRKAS
Assay: PDSP primary binding 5-HT1D
Conditions: 1.5 h; primary binding, 10,000 nM; last figure of the line = mean of the 4 before it; read-out: 5-HT1D, PDSP raw data, mean
Procedure: To determine if any off-target receptor-binding effects are present, all the novel ligands were sent to the National Institute of Mental Health (NIMH), Psychoactive Drug Screening Program (PDSP). […] The hERG-binding was also determined. […] The binding of a ligand to a receptor, ion channel, or transporter was determined in the […] of 10 µM of the appropriate reference compound. […] Radioactivity was then counted on a Microbeta counter. […]
# unit: % | format: bare number

Worked cases, answers included:
{"Compound": "CCc1noc(-c2ncn3c2[C@@H](C)N=C(c2ccccc2F)c2cc(Cl)ccc2-3)n1 [Compound 36]", "Units text": "%", "inhibition at 10 µM": -1.16}
{"Compound": "C#Cc1ccc2c(c1)C(c1ccccn1)=N[C@@H](C)c1c(C(=O)N(C)C)ncn1-2 [Compound 31]", "Units text": "%", "inhibition at 10 µM": -15}
{"Compound": "C#Cc1ccc2c(c1)C(c1ccccc1Cl)=N[C@H](C)c1c(C(=O)N(C)CC)ncn1-2 [Compound 29]", "Units text": "%", "inhibition at 10 µM": -13.1}
{"Compound": "C#Cc1ccc2c(c1)C(c1ccccn1)=N[C@@H](C)c1c(C(=O)NC)ncn1-2 [Compound 23]", "Units text": "%", "inhibition at 10 µM": -15.1}
{"Compound": "C[C@H]1N=C(c2ccccc2F)c2cc(Cl)ccc2-n2cnc(-c3nc(C4CC4)no3)c21 [Compound 38]", "Units text": "%", "inhibition at 10 µM": 7.31}

Lookup: I am curious: what inhibition at 10 µM value has been reported for C[C@H]1N=C(c2ccccc2F)c2cc(-c3ccccc3)ccc2-n2cnc(C(=O)N(C)C)c21 [Compound 5] ?
Found: -3.41

Lookup: I am curious: what inhibition at 10 µM value has been reported for C#Cc1ccc2c(c1)C(c1ccccc1Cl)=N[C@H](C)c1c(C(=O)NC)ncn1-2 [Compound 21] ?
Found: -9.02

Lookup: I am curious: what inhibition at 10 µM value has been reported for CCc1noc(-c2ncn3c2[C@@H](C)N=C(c2ccccc2F)c2cc(C4CC4)ccc2-3)n1 [Compound 46] ?
Found: 17.7

====

The compounds listed here are annotated with their inhibition at 10 µM.
molecular target: V1A (Homo sapiens); construct: purchased NIMH Psychoactive Drug Screening Program (PDSP); test: PDSP primary binding V1A; details: primary binding, 10,000 nM; last figure of the line = mean of the 4 before it; read-out: V1A, PDSP raw data, mean
Sequence (P37288 whole entry): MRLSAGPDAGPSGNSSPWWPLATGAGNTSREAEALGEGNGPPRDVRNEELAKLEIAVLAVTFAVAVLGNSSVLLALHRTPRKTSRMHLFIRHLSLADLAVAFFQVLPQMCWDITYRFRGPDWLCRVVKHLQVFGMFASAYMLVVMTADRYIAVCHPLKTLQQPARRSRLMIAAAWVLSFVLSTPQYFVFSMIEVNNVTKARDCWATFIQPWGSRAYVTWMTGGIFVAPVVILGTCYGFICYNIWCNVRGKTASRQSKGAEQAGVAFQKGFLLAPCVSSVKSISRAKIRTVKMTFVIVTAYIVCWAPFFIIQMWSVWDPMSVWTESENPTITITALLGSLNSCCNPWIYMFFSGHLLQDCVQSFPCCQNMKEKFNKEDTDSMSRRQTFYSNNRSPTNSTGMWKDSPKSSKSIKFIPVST
# unit: % | format: bare number

Worked cases, answers included:
{"Smiles text": "C[C@H]1N=C(c2ccccc2F)c2cc(-c3ccccc3)ccc2-n2cnc(C(=O)N(C)C)c21", "Test system": "V1A (Homo sapiens)", "Measured": 15.6}
{"Smiles text": "C#Cc1ccc2c(c1)C(c1ccccc1Cl)=N[C@H](C)c1c(C(=O)N(C)CC)ncn1-2", "Test system": "V1A (Homo sapiens)", "Measured": 8.93}
{"Smiles text": "CCc1noc(-c2ncn3c2[C@@H](C)N=C(c2ccccc2F)c2cc(-c4ccccc4)ccc2-3)n1", "Test system": "V1A (Homo sapiens)", "Measured": 3.9}
{"Smiles text": "CCc1noc(-c2ncn3c2[C@@H](C)N=C(c2ccccc2F)c2cc(Cl)ccc2-3)n1", "Test system": "V1A (Homo sapiens)", "Measured": 27.6}
{"Smiles text": "CCc1noc(-c2ncn3c2[C@@H](C)N=C(c2ccccc2F)c2cc(C4CC4)ccc2-3)n1", "Test system": "V1A (Homo sapiens)", "Measured": -6.74}
{"Smiles text": "C#Cc1ccc2c(c1)C(c1ccccn1)=N[C@@H](C)c1c(C(=O)NC)ncn1-2", "Test system": "V1A (Homo sapiens)", "Measured": 25.4}
{"Smiles text": "C[C@H]1N=C(c2ccccc2F)c2cc(Cl)ccc2-n2cnc(-c3nc(C4CC4)no3)c21", "Test system": "V1A (Homo sapiens)", "Measured": 4.3}

Lookup: I am curious: what inhibition at 10 µM value has been reported for C#Cc1ccc2c(c1)C(c1ccccc1F)=N[C@H](C)c1c(C(=S)N(C)C)ncn1-2 ?
Found: 15.6

====

The compounds listed here are annotated with their Ki.
molecular target: peripheral benzodiazepine receptors (PBR) (Rattus norvegicus, UniProt P16257); test: PDSP radioligand binding at PBR
Sequence (P16257 whole entry): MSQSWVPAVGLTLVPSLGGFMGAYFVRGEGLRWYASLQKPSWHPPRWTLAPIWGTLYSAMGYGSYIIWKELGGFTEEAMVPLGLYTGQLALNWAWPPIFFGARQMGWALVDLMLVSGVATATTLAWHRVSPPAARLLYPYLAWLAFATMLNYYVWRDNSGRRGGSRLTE
# unit: nM | format: bare number

Worked cases, answers included:
{"Compound": "C#Cc1ccc2c(c1)C(c1ccccc1F)=N[C@H](C)c1c(C(=S)N(C)C)ncn1-2 [Compound 33]", "Measured": 1710}
{"Compound": "C[C@H]1N=C(c2ccccc2F)c2cc(Cl)ccc2-n2cnc(-c3nc(C4CC4)no3)c21 [Compound 38]", "Measured": 617}

Lookup: I am curious: what Ki value has been reported for CCc1noc(-c2ncn3c2[C@@H](C)N=C(c2ccccc2F)c2cc(C4CC4)ccc2-3)n1 [Compound 46] ?
Found: 627

Lookup: I am curious: what Ki value has been reported for CC(C)c1noc(-c2ncn3c2[C@@H](C)N=C(c2ccccc2F)c2cc(Cl)ccc2-3)n1 [Compound 37] ?
Found: 838

Lookup: I am curious: what Ki value has been reported for CCc1noc(-c2ncn3c2[C@@H](C)N=C(c2ccccc2F)c2cc(Cl)ccc2-3)n1 [Compound 36] ?
Found: 982

====

target: M4 (Homo sapiens); construct: purchased NIMH Psychoactive Drug Screening Program (PDSP); test: PDSP primary binding M4; conditions: primary binding, 10,000 nM; last figure of the line = mean of the 4 before it; read-out: M4, PDSP raw data, mean
Sequence (P08173 whole entry): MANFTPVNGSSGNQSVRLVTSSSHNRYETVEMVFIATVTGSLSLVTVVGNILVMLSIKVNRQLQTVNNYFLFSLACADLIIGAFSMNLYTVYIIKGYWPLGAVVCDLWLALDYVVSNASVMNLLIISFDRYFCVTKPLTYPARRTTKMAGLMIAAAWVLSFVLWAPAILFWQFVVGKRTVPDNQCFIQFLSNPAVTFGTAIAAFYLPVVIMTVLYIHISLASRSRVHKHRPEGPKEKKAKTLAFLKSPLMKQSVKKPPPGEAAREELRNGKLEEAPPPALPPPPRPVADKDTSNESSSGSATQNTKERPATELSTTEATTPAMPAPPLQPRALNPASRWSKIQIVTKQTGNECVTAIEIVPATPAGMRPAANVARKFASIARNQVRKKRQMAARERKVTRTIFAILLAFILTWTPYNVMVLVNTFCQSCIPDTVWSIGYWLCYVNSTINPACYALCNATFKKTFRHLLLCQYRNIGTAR
Value type: inhibition at 10 µM (%)
# unit: % | format: bare number

Lookup: I am curious: what inhibition at 10 µM value has been reported for C[C@H]1N=C(c2ccccc2F)c2cc(Cl)ccc2-n2cnc(-c3nc(C4CC4)no3)c21 ?
Found: -8.66

Lookup: I am curious: what inhibition at 10 µM value has been reported for CCc1noc(-c2ncn3c2[C@@H](C)N=C(c2ccccc2F)c2cc(-c4ccccc4)ccc2-3)n1 ?
Found: -4.16

Lookup: I am curious: what inhibition at 10 µM value has been reported for C#Cc1ccc2c(c1)C(c1ccccc1Cl)=N[C@H](C)c1c(C(=O)N(C)CC)ncn1-2 ?
Found: 4.91

Lookup: I am curious: what inhibition at 10 µM value has been reported for CCc1noc(-c2ncn3c2[C@@H](C)N=C(c2ccccc2F)c2cc(C4CC4)ccc2-3)n1 ?
Found: -0.8

Lookup: I am curious: what inhibition at 10 µM value has been reported for C#Cc1ccc2c(c1)C(c1ccccn1)=N[C@@H](C)c1c(C(=O)N(C)C)ncn1-2 ?
Found: 3.2

Lookup: I am curious: what inhibition at 10 µM value has been reported for C#Cc1ccc2c(c1)C(c1ccccn1)=N[C@@H](C)c1c(C(=O)NC)ncn1-2 ?
Found: 2.93

Lookup: I am curious: what inhibition at 10 µM value has been reported for C[C@H]1N=C(c2ccccc2F)c2cc(-c3ccccc3)ccc2-n2cnc(C(=O)N(C)C)c21 ?
Found: -3.29

Lookup: I am curious: what inhibition at 10 µM value has been reported for C#Cc1ccc2c(c1)C(c1ccccc1Cl)=N[C@H](C)c1c(C(=O)NC)ncn1-2 ?
Found: -16.9

====

target: H2 (Homo sapiens); construct: purchased NIMH Psychoactive Drug Screening Program (PDSP); test: PDSP primary binding H2; details: primary binding, 10,000 nM; last figure of the line = mean of the 4 before it; read-out: H2, PDSP raw data, mean
Sequence (P25021 whole entry): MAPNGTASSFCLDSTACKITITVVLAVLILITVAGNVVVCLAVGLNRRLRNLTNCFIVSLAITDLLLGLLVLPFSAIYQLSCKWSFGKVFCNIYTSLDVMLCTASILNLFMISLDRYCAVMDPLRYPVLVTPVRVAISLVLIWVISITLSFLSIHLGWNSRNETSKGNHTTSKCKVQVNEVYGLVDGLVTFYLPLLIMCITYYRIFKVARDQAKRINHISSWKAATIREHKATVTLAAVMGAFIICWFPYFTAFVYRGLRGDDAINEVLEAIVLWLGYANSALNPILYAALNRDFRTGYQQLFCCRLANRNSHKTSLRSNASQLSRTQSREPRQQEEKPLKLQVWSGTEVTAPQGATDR
The compounds listed here are annotated with their inhibition at 10 µM.
# unit: % | format: bare number

Worked cases, answers included:
{"Smiles text": "CCc1noc(-c2ncn3c2CN=C(c2ccccc2F)c2cc(C4CC4)ccc2-3)n1", "Units text": "%", "Measured": 1.55}
{"Smiles text": "CCc1noc(-c2ncn3c2[C@@H](C)N=C(c2ccccc2F)c2cc(Cl)ccc2-3)n1", "Units text": "%", "Measured": 5.61}
{"Smiles text": "C#Cc1ccc2c(c1)C(c1ccccc1Cl)=N[C@H](C)c1c(C(=O)N(C)CC)ncn1-2", "Units text": "%", "Measured": -0.28}

Attention now shifts to the item below.
Lookup: I am curious: what inhibition at 10 µM value has been reported for CCc1noc(-c2ncn3c2[C@@H](C)N=C(c2ccccc2F)c2cc(C4CC4)ccc2-3)n1 ?
Found: 6.98

====

Target: NOP (Homo sapiens)
Construct: purchased NIMH Psychoactive Drug Screening Program (PDSP)
Sequence (P41146 whole entry): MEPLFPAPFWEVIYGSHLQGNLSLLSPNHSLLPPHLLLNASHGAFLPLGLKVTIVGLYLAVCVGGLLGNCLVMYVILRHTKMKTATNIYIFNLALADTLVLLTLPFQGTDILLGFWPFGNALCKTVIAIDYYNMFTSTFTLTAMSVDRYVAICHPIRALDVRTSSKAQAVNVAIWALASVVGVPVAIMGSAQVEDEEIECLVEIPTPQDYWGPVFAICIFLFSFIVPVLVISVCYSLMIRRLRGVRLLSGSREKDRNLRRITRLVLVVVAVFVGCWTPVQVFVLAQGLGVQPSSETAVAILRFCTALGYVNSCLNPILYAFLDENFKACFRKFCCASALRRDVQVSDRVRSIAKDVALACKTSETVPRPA
Assay: PDSP primary binding NOP
Details: primary binding, 10,000 nM; last figure of the line = mean of the 4 before it
Experimental: To determine if any off-target receptor-binding effects are present, all the novel ligands were sent to the National Institute of Mental Health (NIMH), Psychoactive Drug Screening Program (PDSP). […] The hERG-binding was also determined. […] The binding of a ligand to a receptor, ion channel, or transporter was determined in the […] of 10 µM of the appropriate reference compound. […] Radioactivity was then counted on a Microbeta counter. […]
Value type: NOP, PDSP raw data, mean (%)
# unit: % | format: bare number

Worked cases, answers included:
{"Compound": "C#Cc1ccc2c(c1)C(c1ccccc1Cl)=N[C@H](C)c1c(C(=O)NC)ncn1-2 [Compound 21]", "NOP, PDSP raw data, mean, %": -0.1}
{"Compound": "C#Cc1ccc2c(c1)C(c1ccccn1)=N[C@@H](C)c1c(C(=O)N(C)C)ncn1-2 [Compound 31]", "NOP, PDSP raw data, mean, %": -14.49}
{"Compound": "C[C@H]1N=C(c2ccccc2F)c2cc(Cl)ccc2-n2cnc(-c3nc(C4CC4)no3)c21 [Compound 38]", "NOP, PDSP raw data, mean, %": -17}

Lookup: I am curious: what NOP, PDSP raw data, mean value has been reported for CCc1noc(-c2ncn3c2[C@@H](C)N=C(c2ccccc2F)c2cc(C4CC4)ccc2-3)n1 [Compound 46] ?
Found: 7.5

Lookup: I am curious: what NOP, PDSP raw data, mean value has been reported for CC(C)c1noc(-c2ncn3c2[C@@H](C)N=C(c2ccccc2F)c2cc(Cl)ccc2-3)n1 [Compound 37] ?
Found: -10.12

These entries and their values trace back to paper PMC10303271.
